tested on: UACC-62 melanoma; test: NCI tumour cell line growth inhibition, 384-well format; in the data active means GI50 below about 0.43 µM; inactive means the rest
The reply should name one outcome from yes (1) for active, no (0) for inactive

{"MOL": "COc1ncc(Nc2ncc([C@@H](C)N3CCN(S(C)(=O)=O)CC3)cc2-c2nc(C)nc(N)n2)cc1F", "GROUP": "yes (1)"}
{"MOL": "CC1(C)CNc2cc(NC(=O)c3cccnc3NCc3ccncc3)ccc21", "GROUP": "no (0)"}
{"MOL": "COCc1c(-c2cc3cc(C)cc(OC)c3s2)c2c(N)ncnn2c1CN1CCNC(=O)C1", "GROUP": "no (0)"}
{"MOL": "CC(C)(C)c1ccc(Oc2ccc(N)cn2)cc1", "GROUP": "no (0)"}

Field: next molecule
So what was the verdict on CNC(=O)c1cc(Oc2ccc(NC(=O)Nc3ccc(Cl)c(C(F)(F)F)c3)c(F)c2)ccn1 in this test? no (0)
